biological target: CD47 on the red cell surface (Homo sapiens (Human), UniProt Q08722 19-323); test: flow cytometry on fixed red cells, antibody 1 µg/mL
reported.metric: MFI (MFI)
A number alone suffices; assume MFI.

Look over these answered cases.
>  <binder>
hz3F10-6.1 (antibody, human IgG4 S228P, kappa, V domains shown, humanized 3F10, full-length heavy and light chains) VH: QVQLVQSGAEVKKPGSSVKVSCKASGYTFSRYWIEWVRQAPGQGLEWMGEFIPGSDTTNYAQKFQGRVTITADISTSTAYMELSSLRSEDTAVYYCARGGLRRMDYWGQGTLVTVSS VL: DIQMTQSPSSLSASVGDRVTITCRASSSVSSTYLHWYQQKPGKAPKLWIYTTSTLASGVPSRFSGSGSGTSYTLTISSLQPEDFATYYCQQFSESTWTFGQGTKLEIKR

>  <MFI, MFI>
7580

$$$$
>  <binder>
hz3F10-5.1 (antibody, human IgG4 S228P, kappa, V domains shown, humanized 3F10, full-length heavy and light chains) VH: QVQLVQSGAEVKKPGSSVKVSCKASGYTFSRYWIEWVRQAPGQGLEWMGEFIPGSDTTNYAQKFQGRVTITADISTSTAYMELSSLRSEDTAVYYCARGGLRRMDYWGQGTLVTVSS VL: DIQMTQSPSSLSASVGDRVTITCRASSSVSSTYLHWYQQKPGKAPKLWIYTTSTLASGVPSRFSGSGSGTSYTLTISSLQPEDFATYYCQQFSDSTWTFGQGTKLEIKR

>  <MFI, MFI>
7400

$$$$

Here is another binder to look at.
response.value for hz3F10-4.1 (antibody, human IgG4 S228P, kappa, V domains shown, humanized 3F10, full-length heavy and light chains) VH: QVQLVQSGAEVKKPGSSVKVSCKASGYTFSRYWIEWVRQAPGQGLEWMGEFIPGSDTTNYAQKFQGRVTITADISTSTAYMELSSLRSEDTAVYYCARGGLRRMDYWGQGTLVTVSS VL: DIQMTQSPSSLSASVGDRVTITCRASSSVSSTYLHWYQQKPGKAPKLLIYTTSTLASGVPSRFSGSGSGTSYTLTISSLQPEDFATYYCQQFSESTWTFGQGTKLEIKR (field: MFI) = 5980
